# target.system: Human HER3, endogenous, on human cancer cell lines (SK-Br-3, MCF7, BT-474) (human, UniProt P21860 20-1342)
# Sequence (P21860 20-1342): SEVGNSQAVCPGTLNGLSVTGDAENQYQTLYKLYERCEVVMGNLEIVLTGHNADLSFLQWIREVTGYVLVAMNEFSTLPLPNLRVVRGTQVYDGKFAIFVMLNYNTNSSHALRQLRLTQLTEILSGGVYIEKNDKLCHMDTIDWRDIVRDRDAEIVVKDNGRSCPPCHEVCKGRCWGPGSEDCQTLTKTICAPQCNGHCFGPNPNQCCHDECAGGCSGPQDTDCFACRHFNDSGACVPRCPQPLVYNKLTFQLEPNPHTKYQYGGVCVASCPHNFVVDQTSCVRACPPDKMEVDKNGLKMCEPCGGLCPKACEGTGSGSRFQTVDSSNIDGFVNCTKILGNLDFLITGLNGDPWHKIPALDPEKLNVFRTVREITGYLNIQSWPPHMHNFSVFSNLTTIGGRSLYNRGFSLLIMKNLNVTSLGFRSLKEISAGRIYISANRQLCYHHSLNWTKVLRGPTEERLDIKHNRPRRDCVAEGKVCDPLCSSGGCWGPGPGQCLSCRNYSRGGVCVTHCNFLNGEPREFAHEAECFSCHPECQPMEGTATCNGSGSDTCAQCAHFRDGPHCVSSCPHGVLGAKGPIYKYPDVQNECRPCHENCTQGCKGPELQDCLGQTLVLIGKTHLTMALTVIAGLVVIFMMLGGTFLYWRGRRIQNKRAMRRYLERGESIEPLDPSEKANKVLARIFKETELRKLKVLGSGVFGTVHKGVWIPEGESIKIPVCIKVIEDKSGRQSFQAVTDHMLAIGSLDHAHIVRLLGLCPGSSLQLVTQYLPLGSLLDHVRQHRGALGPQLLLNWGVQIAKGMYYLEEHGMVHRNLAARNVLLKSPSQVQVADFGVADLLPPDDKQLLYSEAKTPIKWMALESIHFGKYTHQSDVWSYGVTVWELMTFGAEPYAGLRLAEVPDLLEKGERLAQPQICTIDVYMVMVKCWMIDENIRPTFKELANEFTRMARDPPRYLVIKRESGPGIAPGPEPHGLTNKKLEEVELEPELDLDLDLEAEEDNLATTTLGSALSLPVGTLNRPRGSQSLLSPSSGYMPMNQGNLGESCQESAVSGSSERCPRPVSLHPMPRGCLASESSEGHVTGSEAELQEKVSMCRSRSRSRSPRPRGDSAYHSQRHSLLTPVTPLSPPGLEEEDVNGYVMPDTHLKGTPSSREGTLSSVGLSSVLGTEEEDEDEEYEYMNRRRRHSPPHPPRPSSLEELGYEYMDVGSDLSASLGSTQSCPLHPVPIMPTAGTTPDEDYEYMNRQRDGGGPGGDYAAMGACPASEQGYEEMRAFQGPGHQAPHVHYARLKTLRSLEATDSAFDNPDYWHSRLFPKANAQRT
# experiment: cell-based or functional assay
assay.metric: BT-474 proliferation % inhibition (%)

[
  {
    "binder": "MOR12616 (antibody, human IgG1, kappa, V domains shown, tested as IgG) VH: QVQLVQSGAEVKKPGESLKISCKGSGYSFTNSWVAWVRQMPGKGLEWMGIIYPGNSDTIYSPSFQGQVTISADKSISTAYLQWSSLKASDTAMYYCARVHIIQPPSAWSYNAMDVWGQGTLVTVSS VL: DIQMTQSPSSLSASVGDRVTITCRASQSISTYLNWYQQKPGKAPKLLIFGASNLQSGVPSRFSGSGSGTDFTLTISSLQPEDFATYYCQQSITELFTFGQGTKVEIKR",
    "display.unit": "%",
    "readout.value": 45
  },
  {
    "binder": "MOR13871 (antibody, human IgG1, kappa, V domains shown, tested as IgG) VH: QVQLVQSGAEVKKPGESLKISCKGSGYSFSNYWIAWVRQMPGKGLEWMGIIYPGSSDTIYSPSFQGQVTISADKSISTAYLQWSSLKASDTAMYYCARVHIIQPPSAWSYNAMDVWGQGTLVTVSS VL: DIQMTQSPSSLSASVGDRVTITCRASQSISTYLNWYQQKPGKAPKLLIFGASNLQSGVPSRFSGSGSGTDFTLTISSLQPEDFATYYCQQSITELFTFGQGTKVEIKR",
    "display.unit": "%",
    "readout.value": 43
  },
  {
    "binder": "MOR13752 (antibody, human IgG1, kappa, V domains shown, tested as IgG) VH: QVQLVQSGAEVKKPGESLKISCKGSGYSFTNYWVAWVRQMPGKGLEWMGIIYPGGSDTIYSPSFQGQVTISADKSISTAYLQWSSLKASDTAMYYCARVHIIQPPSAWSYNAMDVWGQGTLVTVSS VL: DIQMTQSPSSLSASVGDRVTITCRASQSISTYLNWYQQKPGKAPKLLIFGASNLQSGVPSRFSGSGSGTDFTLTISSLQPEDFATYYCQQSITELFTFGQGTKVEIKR",
    "display.unit": "%",
    "readout.value": 22
  },
  {
    "binder": "MOR13767 (antibody, human IgG1, kappa, V domains shown, tested as IgG) VH: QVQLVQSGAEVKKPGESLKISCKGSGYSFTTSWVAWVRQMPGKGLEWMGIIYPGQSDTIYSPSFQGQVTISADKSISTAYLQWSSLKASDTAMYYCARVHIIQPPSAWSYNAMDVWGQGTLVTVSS VL: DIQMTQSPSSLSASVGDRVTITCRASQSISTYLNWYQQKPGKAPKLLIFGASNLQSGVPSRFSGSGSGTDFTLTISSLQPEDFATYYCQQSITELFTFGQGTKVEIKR",
    "display.unit": "%",
    "readout.value": 48
  },
  {
    "binder": "MOR13867 (antibody, human IgG1, kappa, V domains shown, tested as IgG) VH: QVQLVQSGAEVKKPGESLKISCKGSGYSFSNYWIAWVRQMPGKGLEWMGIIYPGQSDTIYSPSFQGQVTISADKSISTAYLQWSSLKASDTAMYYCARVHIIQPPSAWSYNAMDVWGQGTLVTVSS VL: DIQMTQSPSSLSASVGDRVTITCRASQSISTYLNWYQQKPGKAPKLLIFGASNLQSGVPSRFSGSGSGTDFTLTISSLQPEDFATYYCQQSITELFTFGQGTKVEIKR",
    "display.unit": "%",
    "readout.value": 42
  },
  {
    "binder": "MOR13765 (antibody, human IgG1, kappa, V domains shown, tested as IgG) VH: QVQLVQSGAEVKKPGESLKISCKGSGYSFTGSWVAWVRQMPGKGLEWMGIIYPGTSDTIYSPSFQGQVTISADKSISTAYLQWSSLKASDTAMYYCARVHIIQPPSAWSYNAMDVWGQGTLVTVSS VL: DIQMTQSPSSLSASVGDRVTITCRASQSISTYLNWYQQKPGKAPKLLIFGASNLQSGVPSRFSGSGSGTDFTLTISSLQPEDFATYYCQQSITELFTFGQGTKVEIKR",
    "display.unit": "%",
    "readout.value": 27
  },
  {
    "binder": "MOR13768 (antibody, human IgG1, kappa, V domains shown, tested as IgG) VH: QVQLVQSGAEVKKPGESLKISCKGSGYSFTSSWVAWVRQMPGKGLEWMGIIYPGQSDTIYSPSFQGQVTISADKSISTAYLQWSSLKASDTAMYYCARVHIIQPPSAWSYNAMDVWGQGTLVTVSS VL: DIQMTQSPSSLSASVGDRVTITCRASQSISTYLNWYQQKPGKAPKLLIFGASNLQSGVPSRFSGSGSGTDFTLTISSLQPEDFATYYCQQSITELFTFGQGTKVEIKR",
    "display.unit": "%",
    "readout.value": 43
  },
  {
    "binder": "MOR12925 (antibody, human IgG1, kappa, V domains shown, tested as IgG) VH: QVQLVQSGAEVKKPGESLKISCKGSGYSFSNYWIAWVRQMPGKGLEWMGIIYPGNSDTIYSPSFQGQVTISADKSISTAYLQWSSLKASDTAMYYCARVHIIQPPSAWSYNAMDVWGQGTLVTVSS VL: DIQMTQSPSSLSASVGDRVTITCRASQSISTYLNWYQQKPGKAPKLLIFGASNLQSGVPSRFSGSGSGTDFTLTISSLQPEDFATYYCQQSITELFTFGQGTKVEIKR",
    "display.unit": "%",
    "readout.value": 47
  },
  {
    "binder": "MOR13869 (antibody, human IgG1, kappa, V domains shown, tested as IgG) VH: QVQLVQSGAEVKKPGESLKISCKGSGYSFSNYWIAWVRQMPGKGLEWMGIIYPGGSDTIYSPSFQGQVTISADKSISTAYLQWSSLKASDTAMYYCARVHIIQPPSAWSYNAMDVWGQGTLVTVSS VL: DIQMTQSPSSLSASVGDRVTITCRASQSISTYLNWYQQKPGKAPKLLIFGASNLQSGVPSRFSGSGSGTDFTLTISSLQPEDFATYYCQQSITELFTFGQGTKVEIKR",
    "display.unit": "%",
    "readout.value": 28
  },
  {
    "binder": "MOR13755 (antibody, human IgG1, kappa, V domains shown, tested as IgG) VH: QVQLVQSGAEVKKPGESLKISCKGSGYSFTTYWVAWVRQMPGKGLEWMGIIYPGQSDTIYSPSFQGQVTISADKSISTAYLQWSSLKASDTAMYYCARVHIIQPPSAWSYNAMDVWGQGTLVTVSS VL: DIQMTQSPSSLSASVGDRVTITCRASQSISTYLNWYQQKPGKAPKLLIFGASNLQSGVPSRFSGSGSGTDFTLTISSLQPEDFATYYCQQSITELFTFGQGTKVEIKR",
    "display.unit": "%",
    "readout.value": 41
  }
]
